system-name: Cytochrome P450 2C19 (Homo sapiens) (UniProt P33261)
Sequence (P33261 whole entry, looked up): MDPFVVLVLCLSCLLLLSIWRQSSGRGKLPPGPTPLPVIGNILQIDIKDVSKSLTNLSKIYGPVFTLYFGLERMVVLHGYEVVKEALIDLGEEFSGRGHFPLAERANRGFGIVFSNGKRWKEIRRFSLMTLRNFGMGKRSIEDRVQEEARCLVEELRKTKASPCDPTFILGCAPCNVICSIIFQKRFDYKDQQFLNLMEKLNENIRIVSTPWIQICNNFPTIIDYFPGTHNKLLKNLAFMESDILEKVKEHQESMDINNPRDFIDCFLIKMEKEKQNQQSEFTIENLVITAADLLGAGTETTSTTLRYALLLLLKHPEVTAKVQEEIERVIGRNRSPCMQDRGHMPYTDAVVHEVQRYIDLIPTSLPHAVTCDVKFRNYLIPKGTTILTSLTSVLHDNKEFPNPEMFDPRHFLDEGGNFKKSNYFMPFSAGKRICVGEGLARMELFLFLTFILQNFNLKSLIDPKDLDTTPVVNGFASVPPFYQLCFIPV
protocol-notes: qHTS Assay for Inhibitors and Substrates of Cytochrome P450 2C19 (AID 899); also: nearly all actives have a fitted effect of over 60% in size
assay-conditions: recombinant CYP2C19, luciferin-H EGE luminescence; series mostly up to 57.1 µM
Results filed as inconclusive are left out. Activity calls are given as the source filed them. Calls follow the shape of the dose curve; as a rule, active = well fitted inhibition curve with a large enough effect; inconclusive = small, poorly fitted or top-dose-only effect; inactive = no such curve, though single readings can be large or run the other way.
Outcome (select one): active, inactive

Previously resolved entries follow.
COc1ccccc1CCn1c(=O)c(-c2cc(F)cc(F)c2)nc2cncnc21; active
CN1CCN(c2ncnc3ccc(-c4ccccc4Cl)cc23)CC1; active
O=c1c(-c2ccc(F)cc2)nc2cnc(N3CCNCC3)nc2n1-c1ccccc1; inactive
Cc1ccccc1-c1cncnc1NCc1cccs1; active

Query: For CC(C)NC(=O)N1CC[C@@]2(CCCN(C(=O)Oc3ccccc3)C2)C1 , what call appears in the results of this test?
Result: inactive

Query: For Cc1nc2cncnc2n(C2CC2)c1=O , which call appears in the assay record?
Result: active

Query: Dear all, I need the recorded test outcome for Cc1cccc(CNc2ccnc(-c3cccnc3)n2)c1 , thank you.
Result: active

Query: Please share the test call associated with COc1ccccc1CNc1ncncc1-c1cccc(C#N)c1 .
Result: active

Query: Called result for Cc1ccccc1-c1cc(NCc2ccccc2)ncn1
Result: active

Query: For Clc1ccccc1-c1nccc(-n2ccnc2)n1 , which call appears in the assay record?
Result: active

Query: Please state the recorded outcome for this molecule: COc1ccc2[nH]cc(CCNc3ncncc3-c3c(C)noc3C)c2c1
Result: active

Query: What classification did COc1cccc(-c2ccc3ncnc(NCc4cccnc4)c3c2)c1 end up with in this test?
Result: active

Query: recorded result category for COc1ccc(-c2nc3cnc(N4CCN(C)CC4)nc3n(Cc3cccs3)c2=O)cc1 in this test
Result: inactive

Query: Please let me know the test result on file for N#CCCn1c(=O)c(CCc2ccccc2)nc2cnc(Oc3cccc(Cl)c3)nc21 .
Result: active

Query: Would you mind telling me which call this test gave CC(=O)N1CCC2(CC1)CN(c1ccccc1)C2 ?
Result: inactive

Query: // param item: O=C(Oc1ccccc1)N1CCC[C@@]2(CCN(c3ncccn3)C2)C1 ; yields the recorded call
Result: active

Query: How did this test come out for Cc1ccccc1-c1ccc2ncnc(NC3CC3)c2c1 ?
Result: active

Query: So what was the verdict on c1cncc(CNc2ncncc2-c2ccc3c(c2)OCO3)c1 in this test?
Result: active

Query: Write down the call the test reported for this molecule. Item: O=S(=O)(c1ccccc1)N1CCC[C@@]2(CCN(c3ccccc3)C2)C1
Result: active

Query: What outcome does the record of this test show for Cc1noc(C)c1-c1cncnc1N(C)Cc1ccco1 ?
Result: active

Query: Record request — test call for CN1CCN(c2ncc3ncc(=O)n(CCC#N)c3n2)CC1
Result: inactive

Query: Outcome logged for Cn1cccc1C(=O)N1CCC[C@@]2(CCN(c3ccccc3)C2)C1 in this assay:
Result: active

Query: Could you please tell me the result logged for NCCC(=O)NCCc1cnc[nH]1 in this assay?
Result: inactive
